This collection of values is drawn from PubChem BioAssay AID1159580.

Assay: chemical genetic growth profiling, strain panel (AID 1159580);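 note: tested at 20 µM; growth read once vehicle control cultures reached saturation at 30 °C; lower values mean less growth of the strain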
Conditions: S. cerevisiae deletion strains, growth OD, locus YER111C, strain swi4
Among all 5,500 compounds or so, about 2,000 (36%) were called active. Inconclusive results (about 18%) are left out. Cut-off read from the data, not from the text of the source: active = normalized growth mostly below about 0.91 (no sharp cut-off); inconclusive = no clear call, values can overlap the other calls; inactive = mostly above about 0.92. The list shows a part of the results.
Labels: active, inactive

| COMPOUND | LABEL_VALUE |
| --- | --- |
| C=C[C@H]1CN2CC[C@H]1C[C@H]2[C@H](O)c1ccnc2ccccc12 | inactive |
| CC(=O)OC1CCC23CC1(C)CCC2C(C)(C)CC3OC(C)=O (stereo unspecified) | inactive |
| COc1ccc(NS(=O)(=O)c2ccc(N)cc2)nn1 | inactive |
| CCCCCC/C=C\CCCCCCCc1cccc(O)c1C(=O)O | inactive |
| CC(=O)c1ccc[nH]1 | inactive |
| CC(=O)CCCCn1c(=O)c2c(ncn2C)n(C)c1=O | inactive |
| NC(=NCCCCCCN=C(N)N=C(N)Nc1ccc(Cl)cc1)N=C(N)Nc1ccc(Cl)cc1 | active |
| CC(=O)OC1CCC2(O)CC1(C)CCC1C2CC1(C)C (stereo unspecified) | inactive |
| CC(C)=CCC/C(C)=C/CO | inactive |
| O=C(O)[C@H]1/C(=C/CO)O[C@@H]2CC(=O)N21 | inactive |
| C[N+]12CCC(CC1)C(OC(=O)C(O)(c1ccccc1)c1ccccc1)C2 (stereo unspecified) | inactive |
| CNC(=O)Oc1ccccc1OC(C)C | inactive |
| CC(=O)O[C@@H]1C2CC[C@@H]3C1(C[C@@H](O)[C@@]1(O)[C@@H](C[C@H](O)C1(C)C)[C@]3(C)O)C[C@@]2(C)O (stereo partly specified) | inactive |
| Cn1c(=O)[nH]c2ncn(C)c2c1=O | inactive |
| Cn1c(=O)c2c(ncn2CCO)n(C)c1=O | inactive |
| CC(=O)NC1C(O)OC(COS(=O)(=O)O)C(OC2OC(C(=O)O)C(OC3OC(CO)C(OC4OC(C(=O)O)C(O)C(O)C4OS(=O)(=O)O)C(OS(=O)(=O)O)C3NS(=O)(=O)O)C(O)C2OS(=O)(=O)O)C1O (stereo unspecified) | inactive |
| COC(=O)C[C@H]1C(C)(C)[C@@H](OC(C)=O)[C@@H]2CC3=C4CC(=O)O[C@@H](c5ccoc5)[C@]4(C)CCC3[C@@]1(C)C2=O (stereo partly specified) | inactive |
| C/C(=C\CO)CC[C@H](C)CCC[C@H](C)CCCC(C)C | inactive |
| O=C(O)C1=C(CSc2nnnn2CS(=O)(=O)O)CS[C@@H]2C(NC(=O)[C@H](O)c3ccccc3)C(=O)N12 (stereo partly specified) | inactive |
| CC(C)CCCC(C)N (stereo unspecified) | inactive |
| CNC(C)[C@@H]1CC[C@@H](N)[C@@H](OC2[C@@H](N)C[C@@H](N)[C@H](OC3OC[C@](C)(O)[C@H](NC)[C@H]3O)[C@H]2O)O1 (stereo partly specified) | inactive |
